B1: OR4K15 (parent)
chain: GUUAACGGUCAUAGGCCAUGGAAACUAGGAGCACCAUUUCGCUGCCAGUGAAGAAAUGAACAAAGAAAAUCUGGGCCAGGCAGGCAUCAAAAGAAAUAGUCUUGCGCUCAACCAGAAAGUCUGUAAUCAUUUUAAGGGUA

# Variants of: B1
# test_summary: self-cleavage, relative activity (ratio to wild type); higher = more cleavage; in vitro, sequencing; the parent is a self-cleaving ribozyme
endpoint: self-cleavage
Respond numerically, and do not add a unit to the figure.

Use the examples below as a reference point.
[
  {
    "input_sequence": "GUUAACGGUCAUAGGCCAUGGAACCUAGGAGCACCAUUUCGCUGCCAGUGAAGAAAUGAACAAAGAAAAUCUGGGCCAGGCAGGCAUCAAAAGAAAUAGUCUUGCGCUCAACCAGAAAGUCUAUAAUCAUUUUAAGGGUA",
    "experimental_result": 1.91
  },
  {
    "input_sequence": "GUUAACGGUCAUAGGCCAUGGAAACUAGGAGCACCAUUUCGCUGCCAGUGAAGAAAUGAACAAAGAAAAUCUGGGCCAGGCAGGCAUCUAAAGAGAUAGUCUUGCGCUCAACCAGAAAGUCUGUAAUCAUUUUAAGGGUA",
    "experimental_result": 2.26
  },
  {
    "input_sequence": "GUUAACGGCCAUAGGCCAUGGAAACUAGGAGCACCAAUUCGCUGCCAGUGAAGAAAUGAACAAAGAAAAUCUGGGCCAGGCAGGCAUCAAAAGAAAUAGUCUUGCGCUCAACCAGAAAGUCUGUAAUCAUUUUAAGGGUA",
    "experimental_result": 2.35
  },
  {
    "input_sequence": "GUUAACGGUCAUAGGCCAUGGAAACUAGGAGCACCAUUUCGCUGCCAGUGAAAAAAUGAACAAAGAAAAUCUGGGCCAGGCAGGCAUCAAAAGAAAUAGUCUUGCGCUCAACCAGAACGUCUGUAAUCAUUUUAAGGGUA",
    "experimental_result": 0.99
  },
  {
    "input_sequence": "GUUAACGGUCAUAGGCCAUGGAAACUAGGUGCACCAUUUCGCUGCCAGUGAAGAAAUGAACAAAGAAAACCUGGGCCAGGCAGGCAUCAAAAGAAAUAGUCUUGCGCUCAACCAGAAAGUCUGUAAUCAUUUUAAGGGUA",
    "experimental_result": 0.71
  }
]

Return self-cleavage for the following variant: `GUUAACGGUCAUAGGCCAUGGAAACUAGGAGCACCAUUUCGCUGCCAGUGACGGAAUGAACAAAGAAAAUCUGGGCCAGGCAGGCAUCAAAAGAAAUAGUCUUGCGCUCAACCAGAAAGUCUGUAAUCAUUUUAAGGGUA`
1.34

Return self-cleavage for the following variant: `GUUAACGGUCAUAGGCCAUGGAAACUAGGAGCACCAUUUCGCUGCCAGUGAAGAGAUGAACAAAGAAAUUCUGGGCCAGGCAGGCAUCAAAAGAAAUAGUCUUGCGCUCAACCAGAAAGUCUGUAAUCAUUUUAAGGGUA`
0.23

Return self-cleavage for the following variant: `GUUAACGGUCAUAGGCAAUAGAAACUAGGAGCACCAUUUCGCUGCCAGUGAAGAAAUGAACAAAGAAAAUCUGGGCCAGGCAGGCAUCAAAAGAAAUAGUCUUGCGCUCAACCAGAAAGUCUGUAAUCAUUUUAAGGGUA`
1.56

Return self-cleavage for the following variant: `GUUAACGGUCAUAGGCCAUGGAAACUAGGAGCACCAUUUCGCUGCCAGUGAAGAAAUGAACAAAGAAAACCUGGGCCAGGCAGGCAUCAAAAGAAAUAGUCUUGCGCUCAGCCAGAAAGUCUGUAAUCAUUUUAAGGGUA`
0.02

Return self-cleavage for the following variant: `GUUAACGGUCAUAGGCCAUGGAAACUAGGAGCACCAUUUCGCUGCCAGUGAAGAAAUGAACAAAGAAAAUCUGGGCCAGGCAGGCAUCGAAAGAAAUUGUCUUGCGCUCAACCAGAAAGUCUGUAAUCAUUUUAAGGGUA`
2.15

Return self-cleavage for the following variant: `GUUAACGGUCAUAGGCCAUGGAAACUAGGAGCACCAUUUCGCUGCCAGUGAAGAAAUGAACAAAGAAAAUCUGGGCCAGGCAGGCAUCAAAGGAAAUAGUCUUGCGCUCAACCAGCAAGUCUGUAAUCAUUUUAAGGGUA`
0.09

Return self-cleavage for the following variant: `GUUAACGGUCAUAGGCCAUGGAAACUGGGAGCACCAUUUCGCUGCCAGUGAAGAAAUGAACAAAGAAAAUCUGGGCCAGGCAGGCAUCAAAAGAAAUAGUCUUGCGCUCAACCAGAAAGUCUGUAAUCACUUUAAGGGUA`
0.63

Return self-cleavage for the following variant: `GUUAACGGUCAUAGGCCUUGGAAACUAGGAGCACCAUUUCGCUGCCAGUGAAGAAAUGAACAAAGAAAAUCUGGGCCAGGCAGGCAUCAAAAGAAAUAGUCUUGCGCUCAACCAGGAAGUCUGUAAUCAUUUUAAGGGUA`
0.63

Return self-cleavage for the following variant: `GUUAACGGUCAUAGGCCAUGGAAACUAGGAGCACCAUUUCGCUGCCAGUGAAGAAAUGAACAAAGAAAAUCUGGGCCAGGCAGGCAUCAAAAGCAAUAGUCUUGCGCUCAACCAGCAAGUCUGUAAUCAUUUUAAGGGUA`
0.25

Return self-cleavage for the following variant: `GUUAACGGUCGUAGGCCAUGGGAACUAGGAGCACCAUUUCGCUGCCAGUGAAGAAAUGAACAAAGAAAAUCUGGGCCAGGCAGGCAUCAAAAGAAAUAGUCUUGCGCUCAACCAGAAAGUCUGUAAUCAUUUUAAGGGUA`
1.04
